Sourced from the Kinase Knowledgebase extract (Sharma et al. 2016)

pIC50: −log10 of the molar value.
Consider the following pIC50 values measured on UniProtKB Q16539.
Sequence (Q16539 whole entry, looked up): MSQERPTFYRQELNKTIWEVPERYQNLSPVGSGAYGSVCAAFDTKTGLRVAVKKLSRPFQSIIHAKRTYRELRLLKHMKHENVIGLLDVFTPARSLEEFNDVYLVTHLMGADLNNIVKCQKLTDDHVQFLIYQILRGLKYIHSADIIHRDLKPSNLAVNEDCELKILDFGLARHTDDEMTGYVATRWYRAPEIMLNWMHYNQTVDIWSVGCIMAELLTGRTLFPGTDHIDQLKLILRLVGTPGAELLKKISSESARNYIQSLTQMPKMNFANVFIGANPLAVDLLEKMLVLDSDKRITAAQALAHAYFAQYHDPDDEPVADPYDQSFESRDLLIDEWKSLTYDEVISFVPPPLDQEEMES

# compound, recordedMetric, reported
measured = [
    ("COc1cc2c(cc1OCCCN1CCN(C)CC1)ncc1c3ccc(C#N)cc3[nH]c21", "pIC50", "< 4.33"),
    ("COc1cc2c(cc1OCCCN(C)C)ncc1c3ccc(C#N)cc3[nH]c21", "pIC50", "< 4.44"),
    ("COc1cc2c(cc1OCC1CCCCN1C)ncc1c3ccc(C#N)cc3[nH]c21 (centres undefined)", "pIC50", "< 4.30"),
]

Any idea what its pIC50 is? The compound is `COc1cc2c(cc1OC1CCN(C)CC1)ncc1c3ccc(C#N)cc3[nH]c21`
5.17
